Target: T1, human Y2 receptor (human, UniProt P49146 1-381)
T1 construct: whole, on cells; used as membrane fraction of hY2R/CHO cells; also called human NPY2R; hY2R
T1 sequence (looked up): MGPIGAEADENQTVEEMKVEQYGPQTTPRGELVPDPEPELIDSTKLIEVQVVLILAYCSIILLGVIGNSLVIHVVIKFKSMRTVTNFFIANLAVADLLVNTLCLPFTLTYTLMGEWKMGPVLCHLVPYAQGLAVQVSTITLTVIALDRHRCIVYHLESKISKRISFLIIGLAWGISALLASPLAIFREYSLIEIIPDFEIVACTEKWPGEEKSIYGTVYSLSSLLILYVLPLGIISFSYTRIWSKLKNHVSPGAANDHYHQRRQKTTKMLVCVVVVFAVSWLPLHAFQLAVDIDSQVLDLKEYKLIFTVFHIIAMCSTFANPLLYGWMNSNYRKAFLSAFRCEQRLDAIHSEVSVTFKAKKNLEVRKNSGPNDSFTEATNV
Experiment: RBA: [125I]-PYY displacement, hY2R/CHO membranes
Non-standard residues stand in square brackets, D forms with d. No end group written: not given here. NMeF = CN[C@@H](Cc1ccccc1)C(=O)O; 4Amb = NCc1ccc(C(=O)O)cc1
quantity: IC50 Ratio (vs PYY(3-36)) (ratio)
Could you give me the number in ratio? Just the number is fine.

* [4Amb]RAWINLITRQRY-NH2 (N-terminus assumed; SMILES CC[C@H](C)[C@H](NC(=O)[C@H](Cc1c[nH]c2ccccc12)NC(=O)[C@H](C)NC(=O)[C@H](CCCNC(=N)N)NC(=O)c1ccc(CN)cc1)C(=O)N[C@@H](CC(N)=O)C(=O)N[C@@H](CC(C)C)C(=O)N[C@H](C(=O)N[C@H](C(=O)N[C@@H](CCCNC(=N)N)C(=O)N[C@@H](CCC(N)=O)C(=O)N[C@@H](CCCNC(=N)N)C(=O)N[C@@H](Cc1ccc(O)cc1)C(N)=O)[C@@H](C)O)[C@@H](C)CC, also called compound No. 51) [4-Aminomethylbenzoyl-[Ala26, Trp27, Ile28,31]-PYY(25-36)] | 9.5

--- query ---
## Input Note down IC50 Ratio (vs PYY(3-36)) recorded for [4Amb]RAYINLITRQR[NMeF]-NH2 (N-terminus assumed; SMILES CC[C@H](C)[C@H](NC(=O)[C@H](Cc1ccc(O)cc1)NC(=O)[C@H](C)NC(=O)[C@H](CCCNC(=N)N)NC(=O)c1ccc(CN)cc1)C(=O)N[C@@H](CC(N)=O)C(=O)N[C@@H](CC(C)C)C(=O)N[C@H](C(=O)N[C@H](C(=O)N[C@@H](CCCNC(=N)N)C(=O)N[C@@H](CCC(N)=O)C(=O)N[C@@H](CCCNC(=N)N)C(=O)N(C)[C@@H](Cc1ccccc1)C(N)=O)[C@@H](C)O)[C@@H](C)CC, also called compound No. 16) [4-Aminomethylbenzoyl-[Ala26, Ile28,31, NMePhe36]-PYY(25-36)]
## Output 120

Data origin: patent US20120172293A1
